Assay: Comparative metabolism/PK of 2R and deuterated 7R in rats after oral administration
Format: in vivo, Sprague Dawley rats
Settings: male, Sprague Dawley, rat, plasma, po, 10 mg/kg, rat plasma after 10 mg/kg po of 2R or 7R; parent or metabolite 1R as labelled
ATTRIBUTE MEASURED: Cmax (ng/mL)
Numbers only, in ng/mL.

These solved cases illustrate the format of a correct answer.
>>> df
                                   compound  attribute_measured  value_observed
0  CN[C@@]1(c2ccc(F)cc2)CCCCC1=O [Compound 2R]                Cmax             850
1  [2H]C([2H])([2H])N[C@@]1(c2ccc(F)cc2)CCCCC1=O [Compound 7R]                Cmax             799

Continue with the next compound.
Request: Suppose we examine the compound N[C@@]1(c2ccc(F)cc2)CCCCC1=O [Compound 1R] ; what Cmax value has been reported?
Response: 2110

----------
I'd be grateful if you could share measured F for these entries.
Experiment: Oral bioavailability in mice, Method B (plasma and brain PK)
Format: in vivo, C57BL/6 mice
Details: mouse brain, Method B, 1 mg/kg; calculated based on brain exposure (AUC0-last)
Answers are plain numbers, in %.

These solved cases illustrate the format of a correct answer.
>>> df
       compound_structure_string  attribute_measured  value_observed
0    N[C@]1(c2ccc(F)cc2)CCCCC1=O                   F              44
1  CN[C@@]1(c2ccc(F)cc2)CCCCC1=O                   F              33

Could I get F for every one of these entries?
1. N[C@]1(c2cccc(F)c2)CCCCC1=O
2. CN[C@]1(c2ccc(F)cc2)CCCCC1=O

Response:
1. 39
2. 20

----------
I'd be grateful if you could share measured concentration at 0.5 h for these entries.
Assay: Comparative metabolism/PK of 2R and deuterated 7R in rats after oral administration
Format: in vivo, Sprague Dawley rats
Details: male, Sprague Dawley, rat, plasma, oral, 10 mg/kg, rat plasma, 0.5 h after 10 mg/kg po of 2R or 7R; read-out: Mean plasma concentration
Experimental: Animals. Male Sprague Dawley rats were used in these studies. Animals were randomly assigned to treatment groups and were fasted for 4 h before dosing. Drugs. Test compounds 2R and 7R were dissolved in a vehicle consisting of normal saline. They were then administered orally (po) at a dose of 10 mg/kg (calculated based on freebase), and at a volume of 5 mL/kg body weight. Sample Collection and Bioanalysis. […] Concentrations of parent compound (2R or 7R) and metabolite 1R were determined in all samples. […]
Numbers only, in ng/mL.

>>> print(df.to_string())
                                   compound  reading_unit  value_observed
0  CN[C@@]1(c2ccc(F)cc2)CCCCC1=O [Compound 2R]         ng/mL             850
1  [2H]C([2H])([2H])N[C@@]1(c2ccc(F)cc2)CCCCC1=O [Compound 7R]         ng/mL             799

Request: Suppose we examine the compound N[C@@]1(c2ccc(F)cc2)CCCCC1=O [Compound 1R] ; what concentration at 0.5 h value has been reported?
Response: 1700
